experiment: NCI Yeast Anticancer Drug Screen. Data for the rad50EPP+ strain (AID 151);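 also: 0% = growth of vehicle-treated control cultures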
test.parameters: S. cerevisiae rad50 mutant strain, at 33.0 µM, active compounds read high
This is part of a sample that, as a whole, favours compounds with a hit. Of some 79,000 tested, about 15% had one in any assay. Calls of active or inactive are those of the source. Rule as the data show it: active = growth inhibition above about 70%; inactive = the rest.
growth inhibition values by entry
observed.property: growth inhibition

O=C1C=CC(=Nc2cccc3c2-c2ccccc2C3=O)O1 : 89% (active)
CC1=CC(C)(C)SC(SSSC2=NC(C)=CC(C)(C)S2)=N1 : 2% (inactive)
C=COC(=O)N[C@H]1CCc2cc(OC)c(OC)c(OC)c2-c2ccc(SC)c(=O)cc21 : -6% (inactive)
Cc1c(Cl)c(C)c(Cl)c(O)c1Cl : 75% (active)
O=C(O)c1ccccc1C(=O)OC1CCc2ccccc2C1 (configuration not stated) : -8% (inactive)
CC(=O)Oc1ccc2c(c1)Cc1cc(N3C(=O)C=CC3=O)ccc1-2 : 97% (active)
O=C(NO)c1coc2ccccc2c1=O : -5% (inactive)
COc1cccc(C(NC2=NCCC=N2)c2cc3c(cc2O)OCO3)c1O (configuration not stated) : 6% (inactive)
CCC(/C=C/c1ccccc1)=N\Nc1ccc(Cl)cc1 : 17% (inactive)
N#CCCC1C(C#N)C2(Cl)CC1(Cl)C(Cl)=C2Cl (configuration not stated) : 4% (inactive)
Oc1ccc(N=Nc2ccc(Cl)cc2)cc1 : 98% (active)
O=[N+]([O-])c1cn[n+]([O-])c2ccccc12 : 99% (active)
